TEST: Characterization of scale-up HCl Pattern 2 (Tables 16-17)
Type: physicochemical
CONDITION_NOTES: simulated gastric fluid, thermodynamic from solid; 0.1N HCl (pH 0.9)
Structures can show the parent of a compound that is named as a salt.
PROPERTY_LABEL: solubility thermodynamic (µg/mL)
# value in µg/mL; strip the unit string

Data request: Specify measured solubility thermodynamic for Nc1nc2cc(-c3ccc4ncc(C(=O)N5CCOCC5)n4c3)ccc2o1 [HCl Pattern 2] .
Data returned: 3500

----------
TEST: Relative stability (non-competitive and competitive interconversion) experiments of crystal forms of Compound 1
CONDITION_NOTES: non-competitive; refluxed in deionized water at about 95 °C for 3 hours; pXRD, DSC, TGA, 1H-NMR

MOLECULE	crystal form of the resulting material
COc1ccc(Cl)c(S(=O)(=O)NC(=O)c2cn3cc(C(F)(F)F)cc(Cl)c3n2)c1 [Form B ({drug1b})]	Form A
COc1ccc(Cl)c(S(=O)(=O)NC(=O)c2cn3cc(C(F)(F)F)cc(Cl)c3n2)c1 [Form D ({drug1d})]	Form A
COc1ccc(Cl)c(S(=O)(=O)NC(=O)c2cn3cc(C(F)(F)F)cc(Cl)c3n2)c1 [Form TS ({drug1e})]	Form A

----------
TEST: Characterization of scale-up HCl Pattern 2 (Tables 16-17)
Format: physicochemical
CONDITION_NOTES: thermodynamic from solid; Water (pH 1.6)
Counter-ions that a name gives are not always drawn.
PROPERTY_LABEL: solubility thermodynamic (µg/mL)
# value in µg/mL; strip the unit string

Data request: Specify measured solubility thermodynamic for Nc1nc2cc(-c3ccc4ncc(C(=O)N5CCOCC5)n4c3)ccc2o1 [HCl Pattern 2] .
Data returned: 1600
